assay: basal 3T3-L1 adipocyte mitochondrial potential changes, profiling panel, cell-based, JC-1 fluorescence, 3T3-L1 adipocytes, 24 h, 100 nL compound (AID 1168); details: JC-1 mitochondrial fluorescence, higher = more signal, called active from +8 up or from −8 down; also: test concentration not given here
Observable: z-score
Format: numeric value only, no unit, no commentary.

As a guide, the following entries are already answered.
Molecule: COc1ccc(CC[C@H](O)c2cccc(OCC(=O)OC(C)(C)C)c2)cc1
Recorded Result: 1.69
--
Molecule: C=CC[C@@]1(C(=O)O)N=C(c2ccc(OCCCO)cc2)O[C@@H]1c1ccccc1CN=[N+]=[N-]
Recorded Result: -0.164
--
Molecule: C=CCC(OC(C)=O)[C@@H]1[C@@H](N(Cc2cccc3ccccc23)C(=O)c2ccc(-c3ccccc3)cc2)c2cc(OCCCO)ccc2N1C(=O)c1ccc2ccccc2n1 (stereo partly specified)
Recorded Result: -0.12

CCOC(=O)C1=CC[C@@H](c2ccccc2)N(S(=O)(=O)C[Si](C)(C)C)[C@H]1c1ccccc1 yielded z-score of -0.479

COc1ccc(C#Cc2ccc3c(c2)[C@]2(C(=O)N3)[C@H](c3ccc(OCCO)cc3)N3[C@H](c4ccccc4)[C@H](c4ccccc4)OC(=O)[C@H]3[C@@H]2C(=O)O)cc1 yielded z-score of -4.96

CC#CCO[Si](C#CCCCCCC)(C(C)C)C(C)C yielded z-score of -0.552

CCOC(=O)C1=C[C@@H](C(C)(C)C)N(S(=O)(=O)c2ccc(C)cc2)[C@H]1c1ccccc1Cl yielded z-score of 0.147

C=CCC(OC(C)=O)[C@@H]1[C@@H](N(Cc2cc3ccccc3o2)C(=O)c2cccc3ccccc23)c2cc(OCCCO)ccc2N1C(=O)c1ccc2ccccc2c1 (stereo partly specified) yielded z-score of -1.18

COc1cc2c(cc1O)C(c1ccc(CN3CCCC3)cc1)N(Cc1cccc(OC(F)(F)F)c1)CC2 (stereo unspecified) yielded z-score of 1.04
